Record form. Attribute: melting point. Fill in for each entry.

Query: Name the recorded melting point for COc1cc2c(cc1OC)C(CNC(=O)N(C)O)CC2 (centres undefined) .
Result: 120 to 121 °C

Query: Name the recorded melting point for CCCCOc1nc(N)c2[nH]c(=O)n(CCCCN(Cc3cccc(CC(=O)O)c3)CC(C)(C)CN(C)C)c2n1 .
Result: 189 to 190 °C

Query: Name the recorded melting point for COc1cc2c(cc1Nc1ncc(Cl)c(N[C@@H]3CCCC[C@H]3NS(C)(=O)=O)n1)CCNC(=O)C2 .
Result: 109 to 115 °C

Query: Name the recorded melting point for COc1cc(C=C2SC(N3CCOCC3)=NC2=O)cc(-c2ccc(O)c(C34CC5CC(CC(C5)C3)C4)c2)c1O .
Result: 335 to 338 °C

Query: Name the recorded melting point for COc1ccc(C(=O)c2cccc(F)c2F)c(O)c1Cl .
Result: 161 to 162 °C

Query: Name the recorded melting point for O=C1CCCC(C(=O)c2ccc(Cc3ccc(F)cc3)o2)=C1O .
Result: 133 to 134 °C

Query: Name the recorded melting point for CCCCCCOc1ccc(-c2ccc(OCCCCCCBr)cc2)cc1 .
Result: 103 to 105 °C

Query: Name the recorded melting point for COc1cc(CCc2ccccc2OCc2ccccc2)ncc1C(=O)O .
Result: 182 °C

Query: Name the recorded melting point for OC(c1ccc(Cl)cc1)(c1ccc(Cl)cc1)c1cn[nH]c1 .
Result: 135 to 137 °C

---

quantity: melting point

Query: Name the recorded melting point for CC(C)(C)OC(=O)C[C@@H](CC1CCCC1)C(=O)N1C(=O)OC[C@@H]1Cc1ccccc1 .
Result: 113 to 119 °C

Query: Name the recorded melting point for CC(=O)c1cc(-c2ccc(S(C)(=O)=O)cc2)c(-c2ccc(F)cc2)s1 .
Result: 169 to 172 °C

Query: Name the recorded melting point for C=CCOc1cccc2nc(C)sc12 .
Result: 38 to 39 °C

Query: Name the recorded melting point for O=C(NC1CCCCC1)c1ccccc1I .
Result: 148 to 149 °C

Query: Name the recorded melting point for Cc1c(Cl)n(C)n(C)c1=O .
Result: 37 to 38 °C

Query: Name the recorded melting point for COc1cc(C)ccc1S(=O)(=O)N1CCC(=O)C(C(c2ccccc2)c2ccccc2)C1 (stereo unspecified) .
Result: 130 to 131 °C

Query: Name the recorded melting point for CC(C)(C)c1cc(OCCCCCCc2nnn[nH]2)cc(C(C)(C)C)c1O .
Result: 128 to 131 °C

Query: Name the recorded melting point for CC1CC(=O)NN=C1c1ccc(NC(=O)Oc2ccc([N+](=O)[O-])cc2)cc1 (stereo unspecified) .
Result: 177 to 178 °C

Query: Name the recorded melting point for COC1=NS(=O)(=O)N=C1NCCCCC#CCN(C)C .
Result: 172 to 174 °C

Query: Name the recorded melting point for CC(Cl)c1nc2cccnc2[nH]1 (stereo unspecified) .
Result: 132 °C

Query: Name the recorded melting point for NCCOC(=C1C2CC3CC(C2)CC1C3)c1cccc(O)c1 .
Result: 55 °C

---

quantity: melting point

Query: Name the recorded melting point for C[Si](C)(C)N(SN=C(Cl)C#N)[Si](C)(C)C .
Result: 29 to 30 °C

Query: Name the recorded melting point for Nc1nccnc1C(=O)NCCN1CCC(Nc2nc3ccccc3n2Cc2ccc(F)cc2)CC1 .
Result: 157 °C

Query: Name the recorded melting point for COc1c(-c2ccccc2)c2ccc(-c3ccc(C(C)C)cc3)cc2oc1=O .
Result: 85.5 °C

Query: Name the recorded melting point for CC(C)n1nnc(NC(=O)C(c2ccccc2)c2ccccc2)n1 .
Result: 175 to 177 °C

Query: Name the recorded melting point for O=C(O)c1ccc(C(=C2SCCCS2)c2ccccc2)cc1 .
Result: 261 to 262 °C

Query: Name the recorded melting point for COC1C=CC2C3Cc4ccc(O)c5c4C2(CCN3C)C1O5 (stereo unspecified) .
Result: 242 to 243 °C

Query: Name the recorded melting point for CC(C)=C(C(=O)O)c1ccc(F)cc1 .
Result: 124 to 126 °C

Query: Name the recorded melting point for CCCCCCCCc1cc2c(cc1CCCCCCCC)c1ccsc1c1sccc21 .
Result: 62.2 to 63.1 °C

Query: Name the recorded melting point for CCCS(=O)(=O)c1cc([C@H]2CC[C@H](c3cc(OC)c(OC)c(OC)c3)O2)cc(OC)c1OCCSc1ccc(N(C)C)cc1 (relative stereo) .
Result: 113 to 115 °C

Query: Name the recorded melting point for CCOC(=O)c1cnn(C)c1C(=O)Nc1ccn2nc(-c3cccc(F)n3)nc2c1 .
Result: 290 °C

Query: Name the recorded melting point for O=C(CCc1cccc([N+](=O)[O-])c1)c1c(O)c2cccnc2n(-c2ccccc2)c1=O .
Result: 164 to 166 °C

Query: Name the recorded melting point for Cc1[nH]n(C2CCCCC2)c2nc(-c3ccncc3)nc(=O)c1-2 .
Result: 292 to 293 °C

Query: Name the recorded melting point for CC(C)(Cc1ccc(S(=O)C(F)(F)F)cc1)C(O)c1cncnc1 (stereo unspecified) .
Result: 122 °C

Query: Name the recorded melting point for Cc1ncsc1CCOS(N)(=O)=O .
Result: 80 to 83 °C

Query: Name the recorded melting point for COc1c(OCc2ccccc2)ccc2[nH]ccc(=O)c12 .
Result: 180 °C

Query: Name the recorded melting point for CC(=O)c1ccc(O)c(C(C)C)c1 .
Result: 142 to 144 °C

Query: Name the recorded melting point for CCCCCCCCCCCCCC(=O)OCC1(CO)CCC(=O)O1 (stereo unspecified) .
Result: 65 to 66 °C

Query: Name the recorded melting point for Cc1ccc(C(=O)Nc2ccc(N3CCN(C(=O)OC(C)(C)C)CC3)cc2)c(-c2ccc(C(C)C)cc2)c1 .
Result: 173 to 175 °C

Query: Name the recorded melting point for COc1ccc(-c2cc3c(Nc4cccc(Cl)c4)ncnc3[nH]2)cc1 .
Result: 294 to 295 °C

Query: Name the recorded melting point for COc1c(F)c(F)c(C2=CC(=O)NC2=O)c(F)c1F .
Result: 91 °C

Query: Name the recorded melting point for CCOC(=O)C1CC(=O)c2nc(C)c(C)n2C1 (stereo unspecified) .
Result: 138 to 140 °C

---

quantity: melting point

Query: Name the recorded melting point for N#CCN1C(=O)C2(COc3cc4c(cc32)OCCO4)c2ccccc21 (stereo not given) .
Result: 161 to 162 °C

Query: Name the recorded melting point for CC(C)(COc1ccc(CSC2NC(=O)CC2=O)cc1)c1ccccc1 (stereo not given) .
Result: 107 to 108 °C

Query: Name the recorded melting point for CC1COP(=O)(Cc2ccc(N)cc2)OC1 (stereo not given) .
Result: 158 to 159 °C

Query: Name the recorded melting point for CCCCCCCCCCCCCCCCCNC(=O)OCCOCCOC(=O)N(Cc1ccccn1)C(C)=O .
Result: 60 to 61 °C

Query: Name the recorded melting point for CCCNC(=O)CCn1c(C)nc2c(N)nc3ccccc3c21 .
Result: 188 to 189 °C

Query: Name the recorded melting point for CC(C)(C)OC(=O)CN(C(=O)OC(C)(C)C)[C@H](CC1CCCCC1)C(=O)N1CCC[C@H]1C(=O)NC1CCc2nc(N)sc2C1 (stereo not given in full) .
Result: 95 to 101 °C

Query: Name the recorded melting point for COc1ccc2c(c1)C1(CCCC1)C(O)(CC#N)CC2 (stereo not given) .
Result: 126 to 127 °C

Query: Name the recorded melting point for O=C(O)Cc1ccc2c(c1)C(=O)Cc1ccccc1S2 .
Result: 166 to 167 °C

Query: Name the recorded melting point for CSC(C)=NOC(=O)N(C)SCCSN(C)C(=O)ON=C(SC)C(=O)N(C)C .
Result: 102 to 106 °C

Query: Name the recorded melting point for CC(=Cc1ccccc1)c1ccc2c(c1)OCCC2(C)C .
Result: 44 to 46 °C

Query: Name the recorded melting point for CCCn1c(=O)c2[nH]c(/C=C/c3ccc(OCC)cc3)nc2n(CCC)c1=O .
Result: 262 °C

Query: Name the recorded melting point for CC(O)c1nc2c(C(F)(F)F)cccc2c(O)c1C(=O)Nc1nccs1 (stereo not given) .
Result: 205 °C

Query: Name the recorded melting point for O=C(O)c1ccccc1C(=O)N1Cc2ccccc2Cc2ccccc21 .
Result: 220 to 225 °C

Query: Name the recorded melting point for CC(C)Oc1ccc(-c2noc(-c3ccc(CN4CC(C(=O)O)C4)cc3)n2)cc1Cl .
Result: 195 to 196 °C

Query: Name the recorded melting point for COC(=O)Nc1nc2ccccc2n1C(=O)NC1CC(C)(C)CC(C)(N(C)C(=O)n2c(NC(=O)OC)nc3ccccc32)C1 (stereo not given) .
Result: 82 to 83 °C

Query: Name the recorded melting point for O=C(O)Cn1c(-c2ccc([N+](=O)[O-])cc2)nc2cccnc21 .
Result: 249 to 251 °C

Query: Name the recorded melting point for CCCCc1nc(Cl)c(CO)n1Cc1ccc(-c2cccc(C(=O)O)c2)cc1 .
Result: 180 to 181 °C

Query: Name the recorded melting point for COc1c(C)c(C)c(OC)c(C(O)(c2ccccn2)C(C)C)c1C (stereo not given) .
Result: 99 to 100 °C

Query: Name the recorded melting point for O=C(O)CCc1cn(Cc2ccc(OCc3ccccc3)cc2)nc1-c1ccccc1 .
Result: 147 to 148 °C

Query: Name the recorded melting point for O=C(NC1CCCC1)c1ccc2nonc2c1 .
Result: 169 to 170 °C
